Cited source for all entries: patent US11718618B2

# assay-system: human VMAT2 (Homo sapiens (Human))
# Sequence (Q05940 whole entry): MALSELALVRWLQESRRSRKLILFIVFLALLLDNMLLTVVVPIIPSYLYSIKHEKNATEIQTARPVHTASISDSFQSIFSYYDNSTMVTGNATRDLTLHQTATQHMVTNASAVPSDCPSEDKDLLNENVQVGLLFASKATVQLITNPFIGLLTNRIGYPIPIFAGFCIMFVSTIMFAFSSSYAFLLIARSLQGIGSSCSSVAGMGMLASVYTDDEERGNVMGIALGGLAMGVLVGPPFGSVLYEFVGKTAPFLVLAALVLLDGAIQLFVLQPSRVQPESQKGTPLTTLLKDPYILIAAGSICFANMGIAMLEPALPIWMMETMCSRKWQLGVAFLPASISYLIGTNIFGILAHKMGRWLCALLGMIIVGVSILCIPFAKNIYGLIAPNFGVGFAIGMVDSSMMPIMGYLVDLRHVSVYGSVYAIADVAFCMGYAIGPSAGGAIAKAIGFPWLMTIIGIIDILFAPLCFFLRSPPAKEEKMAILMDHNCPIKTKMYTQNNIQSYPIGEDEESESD
# test-details: VMAT2 radioligand binding, 3H-dihydrotetrabenazine competition on human platelet homogenate
# measurement-conditions: 10 nM 3H-dihydrotetrabenazine, human platelet homogenate, 25° C., 90 minutes; read-out: VMAT2 Ki
# Method: Examples of techniques for determining the capability of a compound to inhibit VMAT2 are provided below. […] The human VMAT2 Ki values for the compounds listed in Table 15A and Table 15B were determined using the following procedures. […] Following harvesting the filter plates were washed with 0.8 mL VMAT2 binding buffer, and bound radioligand was quantified by scintillation counting using a Topcount NXT or Microplate Counter Microbeta (PerkinElmer).
pKi: −log10 of the molar value.
Threshold check on pKi: at or above 8 gives satisfied, strictly below gives not satisfied.

Solved entries:
COc1cc2c(cc1OCCOCC#N)CCN1C[C@@H](CC(C)(C)C)[C@H](O)C[C@H]21	not satisfied
CCC(O)(CC)COc1cc2c(cc1OC)[C@H]1C[C@@H](O)[C@H](CC(C)(C)C)CN1CC2	not satisfied
COc1cc2c(cc1OCc1ccc(C(F)(F)F)cc1)CCN1C[C@@H](CC(C)(C)C)[C@H](O)C[C@H]21	not satisfied
COc1cc2c(cc1OC1CCC1)CCN1C[C@@H](CC(C)(C)C)[C@H](O)C[C@H]21	satisfied
COc1cc2c(cc1OCC(F)F)CCN1C[C@H](CC(C)(C)C)[C@H](O)C[C@@H]21	not satisfied

Query: Please indicate if the recorded pKi for COc1cc2c(cc1OC)[C@@H]1C[C@@H](O)[C@@H](CC(C)(C)C)CN1CC2 meets or exceeds 8.
Result: not satisfied

Query: Another: COc1cc2c(cc1OCCn1ccnc1)CCN1C[C@@H](CC(C)(C)C)[C@H](O)C[C@H]21
Result: not satisfied

Query: Another: COc1cc2c(cc1OCC(C)(F)F)CCN1C[C@@H](CC(C)(C)C)[C@H](O)C[C@H]21
Result: satisfied

Query: Another: COc1cc2c(cc1OCCC(F)(F)F)CCN1C[C@@H](CC(C)(C)C)[C@@H](O)C[C@H]21
Result: satisfied

Query: Another: COc1cc2c(cc1OCCOC1(C#N)CCC1)CCN1C[C@@H](CC(C)(C)C)[C@H](O)C[C@H]21
Result: satisfied

Query: Another: CC[C@@H]1C[C@H]1COc1cc2c(cc1OC)[C@H]1C[C@@H](O)[C@H](CC(C)(C)C)CN1CC2
Result: satisfied

---

# assay-system: human VMAT2 (Homo sapiens (Human))
# test-details: VMAT2 radioligand binding, 3H-dihydrotetrabenazine competition on human platelet homogenate
# measurement-conditions: 10 nM 3H-dihydrotetrabenazine, human platelet homogenate, 25° C., 90 minutes; read-out: VMAT2 Ki
Values of Ki strictly less than 100 nM map to 1 (yes), and values of at least 100 nM map to 0 (no).

COc1cc2c(cc1OCCc1ccc(C(F)(F)F)cc1)CCN1C[C@@H](CC(C)(C)C)[C@H](O)C[C@H]21	1 (yes)
COc1cc2c(cc1OCC(C)(F)F)CCN1C[C@H](CC(C)(C)C)[C@H](O)C[C@@H]21	0 (no)
COc1cc2c(cc1OCC1(S(C)(=O)=O)CC1)CCN1C[C@@H](CC(C)(C)C)[C@H](O)C[C@H]21	0 (no)
COc1cc2c(cc1OCC1CC1)CCN1C[C@@H](CC(C)(C)C)[C@H](O)C[C@H]21	1 (yes)
COc1cc2c(cc1OCCCO)CCN1C[C@@H](CC(C)(C)C)[C@H](O)C[C@H]21	0 (no)

Query: Please check: Ki for COc1cc2c(cc1OCC1(C(F)(F)F)CCCC1)CCN1C[C@@H](CC(C)(C)C)[C@H](O)C[C@H]21 , strictly under 100 nM or not?
Result: 0 (no)

Query: Another: COc1cc2c(cc1OCC(F)(F)F)CCN1C[C@@H](CC(C)(C)C)[C@H](O)C[C@H]21
Result: 1 (yes)

---

# test-details: Stability of compounds in human liver microsomes
# Type: in vitro ADME
# measurement-conditions: both sexes, pH 7.4; 0.5 μM compound, 0.5 mg/mL human liver microsomes, 37° C.; maxed at 420 minutes; read-out: HLM Elimination half-life (t1/2, min)
measurement-type: half-life at 0.5 μM

Query: Entry under review: COc1cc2c(cc1OCCC(F)(F)F)CCN1C[C@@H](CC(C)(C)C)[C@@H](O)C[C@H]21 [Compound 4-12] . Reported half-life at 0.5 μM?
Result: ≥ 420 min

Query: Another: COc1cc2c(cc1OCC1(C#N)CC1)CCN1C[C@@H](CC(C)(C)C)[C@H](O)C[C@H]21 [Compound 4-29]
Result: ≥ 420 min

Query: Another: COc1cc2c(cc1OCCCC(F)(F)F)CCN1C[C@@H](CC(C)(C)C)[C@H](O)C[C@H]21 [Compound 4-120]
Result: ≥ 420 min

---

# test-details: Stability of compounds in human liver microsomes
# Format: in vitro ADME
# measurement-conditions: scaled from HLM half-life (Obach method), human
# Procedure: A test compound (0.5 μM) was incubated with pooled mixed gender liver microsomes from humans (0.5 mg/mL total protein) at 37° C. in the presence of an NADPH-generating system containing 50 mM, pH 7.4 potassium phosphate buffer, 3 mM magnesium chloride, 1 mM EDTA, 1 mM NADP, 5 mM glusose-6-phosphate, and 1 Unit/mL glucose-6-phosphate dehydrogenase. […] Aliquots of the resulting supernatant fractions were analyzed by LC-MS/MS monitoring for depletion of parent compound. […]
measurement-type: HLM Predicted Systemic Clearance

COc1cc2c(cc1OCCCC(F)(F)F)CCN1C[C@@H](CC(C)(C)C)[C@H](O)C[C@H]21	≤2.59 mL/min/kg
COc1cc2c(cc1OCCC(F)(F)F)CCN1C[C@H](CC(C)(C)C)[C@@H](O)C[C@@H]21	≤2.59 mL/min/kg

Next compound, HLM Predicted Systemic Clearance to be filled in.
Query: Entry under review: COc1cc2c(cc1OCC(F)(F)F)CCN1C[C@@H](CC(C)(C)C)[C@H](O)C[C@H]21 . Reported HLM Predicted Systemic Clearance?
Result: ≤2.59 mL/min/kg

---

# assay-system: UniProtKB Q05940
# test-details: VMAT2 radioligand binding, 3H-dihydrotetrabenazine competition on human platelet homogenate
# measurement-conditions: 10 nM 3H-dihydrotetrabenazine, human platelet homogenate, 25° C., 90 minutes; read-out: VMAT2 Ki
Here the recorded Ki is given for each entry.
Unit nM implied. Number only.

For orientation, consider the following solved cases.
COc1cc2c(cc1OCCc1ccc(F)cc1)CCN1C[C@@H](CC(C)(C)C)[C@H](O)C[C@H]21 [Compound 4-117]	2.2
COc1cc2c(cc1OCC1(C(F)F)CC1)CCN1C[C@@H](CC(C)(C)C)[C@H](O)C[C@H]21 [Compound 4-57]	0.93
COc1cc2c(cc1OC[C@H](C)OC)CCN1C[C@@H](CC(C)(C)C)[C@H](O)C[C@H]21 [Compound 4-92]	51
COc1cc2c(cc1OCC(F)(F)F)CCN1C[C@H](CC(C)(C)C)[C@@H](O)C[C@@H]21 [Compound 4-8]	597
COc1cc2c(cc1OCCOC1(C#N)CCOCC1)CCN1C[C@@H](CC(C)(C)C)[C@H](O)C[C@H]21 [Compound 4-41]	238

Query: Entry under review: COc1cc2c(cc1OCC(F)(F)F)CCN1C[C@@H](CC(C)(C)C)[C@@H](O)C[C@H]21 [Compound 4-16] . Reported Ki?
Result: 22

Query: Another: COc1cc2c(cc1OC(C)C)CCN1C[C@@H](CC(C)(C)C)[C@H](O)C[C@H]21 [Compound 4-38]
Result: 3.7

Query: Another: CCOc1cc2c(cc1OC)[C@H]1C[C@@H](O)[C@H](CC(C)(C)C)CN1CC2 [Compound 4-17]
Result: 1.1

Query: Another: COc1cc2c(cc1OC[C@@H](O)C(F)(F)F)CCN1C[C@@H](CC(C)(C)C)[C@H](O)C[C@H]21 [Compound 4-49]
Result: 20

---

# test-details: Stability of compounds in human liver microsomes
# Type: in vitro ADME
# measurement-conditions: predicted from HLM data, human
Here the recorded Predicted Max. Bioavailability (% F) is given for each entry.
Unit % F implied. Number only.

COc1cc2c(cc1OCC1COC1)CCN1C[C@@H](CC(C)(C)C)[C@H](O)C[C@H]21	68

Query: Entry under review: COc1cc2c(cc1OCC1(O)CCC1)CCN1C[C@@H](CC(C)(C)C)[C@H](O)C[C@H]21 . Reported Predicted Max. Bioavailability (% F)?
Result: 64

Query: Another: COc1cc2c(cc1OCC(F)F)CCN1C[C@@H](CC(C)(C)C)[C@@H](O)C[C@H]21
Result: 85

Query: Another: [2H]C([2H])([2H])C([2H])([2H])Oc1cc2c(cc1OC)[C@H]1C[C@@H](O)[C@H](CC(C)(C)C)CN1CC2
Result: 46

Query: Another: COc1cc2c(cc1OCc1cccc(F)c1)CCN1C[C@@H](CC(C)(C)C)[C@H](O)C[C@H]21
Result: 35

Query: Another: COc1cc2c(cc1OCC(O)COCC(F)(F)F)CCN1C[C@@H](CC(C)(C)C)[C@H](O)C[C@H]21 (stereo partly shown)
Result: 77

Query: Another: COc1cc2c(cc1OCc1ccc(F)cc1)CCN1C[C@@H](CC(C)(C)C)[C@H](O)C[C@H]21
Result: 32

Query: Another: COc1cc2c(cc1OCC1(C#N)CCC1)CCN1C[C@@H](CC(C)(C)C)[C@H](O)C[C@H]21
Result: 45
